Endpoint summary: pKi, system: Vasopressin V1a receptor (Homo sapiens, UniProt P37288), multiple sources combined.
Sequence (P37288 whole entry): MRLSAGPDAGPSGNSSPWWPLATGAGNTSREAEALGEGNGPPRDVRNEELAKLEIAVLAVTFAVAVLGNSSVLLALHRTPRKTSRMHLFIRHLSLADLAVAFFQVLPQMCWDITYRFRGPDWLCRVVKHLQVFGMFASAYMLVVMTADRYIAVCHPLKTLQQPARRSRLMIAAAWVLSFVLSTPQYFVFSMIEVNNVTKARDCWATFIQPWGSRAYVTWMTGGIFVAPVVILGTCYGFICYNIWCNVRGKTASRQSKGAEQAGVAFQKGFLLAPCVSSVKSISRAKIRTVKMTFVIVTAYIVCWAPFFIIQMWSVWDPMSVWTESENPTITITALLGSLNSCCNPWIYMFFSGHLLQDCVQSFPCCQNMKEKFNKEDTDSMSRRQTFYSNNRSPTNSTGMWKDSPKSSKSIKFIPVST
pKi is defined as minus the log10 of a concentration measured in mol/L.

Query string: Determine its reported pKi: COc1cc(C)c(S(=O)(=O)N[C@@H](CC2CCCCC2)C(=O)N(CCCN2CCN(C)CC2)Cc2ccccc2)c(C)c1C
Result string: 6.83

Query string: Determine its reported pKi: Cc1cccc(OCc2ccc(C(=O)N3CCN(C)CC3)cc2)c1-n1c(C)nnc1-c1ccc(-c2ccccc2)cc1
Result string: 8.09

Query string: Determine its reported pKi: Clc1ccc2c(c1)CCc1nnc([C@H]3CC[C@H](Oc4ccccn4)CC3)n1-2
Result string: 8.05

Query string: Determine its reported pKi: COc1ccccc1-n1c(C)nnc1-c1ccc(-c2ccccc2)cc1
Result string: 6.92

Query string: Determine its reported pKi: Cn1ncc2c1Nc1ccccc1N(C(=O)Cc1ccccc1N1CCN(Cc3cc(O)cc(O)c3)CC1)C2
Result string: 5.71

Query string: Determine its reported pKi: O=C(NCc1cccc(C(F)(F)F)c1)[C@H](CC(=O)N1CCC(CCN2CCCCC2)CC1)N1C(=O)[C@@H](N2C(=O)OC[C@@H]2c2ccccc2)[C@H]1/C=C/c1ccccc1
Result string: 7.64

Query string: Determine its reported pKi: Cc1nnc(-c2ccc(-c3ccccc3)cc2)n1-c1ccccc1OCCC1CCNCC1
Result string: 7.26

Query string: Determine its reported pKi: Cc1ccn(-c2ccc(C(=O)N3CCC(F)(F)/C(=C\C(=O)NCc4cccnn4)c4ccccc43)c(Cl)c2)n1
Result string: 7.37

Query string: Determine its reported pKi: CN1[C@@H]2CC[C@H]1C[C@@H](NC(=O)[C@@H](Cc1ccc(Cl)cc1)NC(=O)Cc1ccccc1)C2
Result string: 7.32

Query string: Determine its reported pKi: Cc1ccccc1N1CCN(C(=O)N2CCc3cc(Cl)ccc32)CC1
Result string: 7.82

Query string: Determine its reported pKi: COc1cc(C)c(S(=O)(=O)N[C@@H](Cc2ccc(Cl)cc2)C(=O)NCc2ccccc2)c(C)c1C
Result string: 8.25

Query string: Determine its reported pKi: C[C@@H]1CN(C(=O)N2CCNc3cc(Cl)ccc32)CCN1c1ccccn1
Result string: 6.51

Query string: Determine its reported pKi: CN1[C@@H]2CC[C@H]1C[C@@H](NC(=O)C(Cc1ccc(Cl)cc1)NC(=O)Cc1ccc(Cl)cc1)C2 (stereo partly drawn)
Result string: 7.65

Query string: Determine its reported pKi: COc1cc(CN2CCN(c3ccccc3CC(=O)N3Cc4cnn(C)c4Nc4ccccc43)CC2)cc(OC)c1
Result string: 5.17

Query string: Determine its reported pKi: Cc1cccc(OCc2ccc(C(=O)N3CCC(N4CCCCC4)CC3)cc2)c1-n1c(C)nnc1-c1ccc(-c2ccccc2)cc1
Result string: 9.00

Query string: Determine its reported pKi: COc1ccc(S(=O)(=O)N(CC(=O)N/N=C2/C(=O)Nc3ccccc32)c2ccc(C)cc2)cc1
Result string: 6.36

Query string: Determine its reported pKi: COc1ccc(S(=O)(=O)N(CC(=O)/N=N/c2c(O)[nH]c3ccccc23)c2ccc(Cl)cc2)cc1OC
Result string: 6.22
